Kindly supply the reported growth values for the records listed here.
System: NCI-H23 lung
ASSAY_NAME: NCI-60 one-dose screen, 48 h (100 = growth as untreated, 0 = no growth, -100 = all killed)
CONDITION_SUMMARY: 10 µM unless noted
This is part of a sample that, as a whole, favours compounds with a hit. Of some 83,000 tested, about 20% had one in any assay. Active and inactive are the calls of the source. Rule for the calls: active = growth percent below 10; inactive = the rest.

Field: example entries. Status: answers known.
1) CC(CCc1ccc(Cl)c(Cl)c1)NCc1ccc(C(C)(C)C)cc1 (stereo not drawn) ... 91.9% (inactive)
2) O=C(Nc1cccc(Oc2nnc(Cl)c3ccccc23)c1)Nc1ccc(Cl)c(C(F)(F)F)c1 ... -52.4% (active)
3) CCCCOc1nc2ccccc2cc1C1CNC(=O)c2ccccc2N1 (stereo not drawn) ... 23.8% (inactive)

I have 2 compounds here; please give me growth for each one.
1. CCN(CC)CCCNc1ccc(Nc2ccc(OC)cc2)cc1
2. O=C1c2cccc(NCCN=Cc3cc([N+](=O)[O-])ccc3O)c2C(=O)c2c(NCCN=Cc3cc([N+](=O)[O-])ccc3O)cccc21

1: 92.3% (inactive); 2: 75% (inactive)

Kindly give each listed record's growth.
1. O=C(O)CN1C(=O)CCC1=O
2. Fc1cnc(NC2CC2)nc1-c1cnc2ccc(N3CCOCC3)cn12
3. C[C@H](NC(=O)[C@@H]1CSSC[C@@H](NC(=O)c2nc3ccccc3cc2O)C(=O)NCC(=O)N1C)c1ccccc1

["104% (inactive)", "-7.34% (active)", "38.6% (inactive)"]

* * *

System: NCI/ADR-RES ovarian
ASSAY_NAME: NCI-60 one-dose screen, 48 h
CONDITION_SUMMARY: 10 µM unless noted
Protocol: Growth inhibition of the NCI/ADR-RES human […] tumor cell line is measured as a screen for anti-cancer activity. Cells are grown in 96 well plates and exposed to the test compound for 48 hours. Compounds are tested at a single concentration, which is 10^-5 M for most compounds. The reported endpoint is percent growth (GI% or GIPRCNT), where numbers from 0 - 100% represent growth inhibition, and numbers from -100% - 0 represent cell death. For example, a value of 40 represents 60% growth inhibition. […]
The panel holds about 83,000 compounds, 20% with a hit somewhere; the sample as a whole holds those more often. Active and inactive are the calls of the source. The calls were made as follows: active = growth percent below 10; inactive = the rest.
Give your call using only these classes: 1.0 for active, 0.0 for inactive

1) O=c1c2cc(F)ccc2sc2c(Nc3cccnc3)nc3ccccc3c12 ... 0.0
2) NC1=NCc2nc3ccccc3c(=O)n2C1 ... 0.0

Now let's try a different one.
Please let me know the test result on file for `CCCCCCN(CCCCCC)c1ccc(/C=C2/SC(=O)N(c3nc(N4CCCC4)nc(N4CCCC4)n3)C2=O)c(C)c1` .
0.0

* * *

System: COLO 205 colon
ASSAY_NAME: NCI-60 one-dose screen, 48 h (100 = growth as untreated, 0 = no growth, -100 = all killed)
CONDITION_SUMMARY: 10 µM unless noted
About 83,000 compounds went through this panel and 20% of them were active in at least one assay; those are over-represented in the sample as a whole.
OBSERVABLE: growth (%)
Answers are plain numbers, in %.

As a guide, the following entries are already answered.
1. COc1ccc(-c2csc(C3=C(O)CN(CCCN4CCCC4=O)C3=N)n2)cc1OC ... 106
2. COc1ccc(N2CCN(c3nc(-c4cc(OC)c(OC)c(OC)c4)nc4ccccc34)CC2)cc1 ... 62.9
3. COc1ccc2c(c1)CCCN2c1c2ccccc2nc2ccccc12 ... -16.8
4. O=C(Nc1ccc(Cl)cc1)Nc1ccc(Cl)c(C(F)(F)F)c1 ... -73.8

Then this compound:
Requested read-out: growth. Entry: `CCc1c2c(nc3ccc(OC(=O)OCc4ccc(B5OC(C)(C)C(C)(C)O5)cc4)cc13)-c1cc3c(c(=O)n1C2)COC(=O)[C@]3(O)CC`
7.72
